assay: Dissociation constant, pKa of the compound; format: physicochemical
readout: pKa
Kindly provide the number alone.

Exercise: Given the molecule Cc1cc(CC(=O)O)n(C)c1C(=O)c1ccc(Cl)cc1 [ZOMEPIRAC] , write its reported pKa.
Solution: 4.7

Exercise: Let me know recorded pKa for O=C(O)CCc1nc(-c2ccccc2)c(-c2ccccc2)o1 , thanks.
Solution: 4.3

Exercise: Name the recorded pKa of the molecule listed here: Cc1cccc(Nc2ccccc2C(=O)O)c1C
Solution: 4.2

Exercise: Please indicate pKa recorded for CC(C(=O)O)c1ccc(C(=O)c2cccs2)cc1 (stereo not drawn)
Solution: 4

Exercise: Hello, please tell me recorded pKa for this one: CC1=C(CC(=O)O)c2cc(F)ccc2/C1=C\c1ccc([S+](C)[O-])cc1 (stereo not drawn)
Solution: 4.5

Exercise: Please indicate pKa recorded for CCCCC1C(=O)N(c2ccccc2)N(c2ccc(O)cc2)C1=O (stereo not drawn) [OXYPHENBUTAZONE ANHYDROUS]
Solution: 4.7

Exercise: Tell me its pKa given CC(C(=O)O)c1ccc2c(c1)[nH]c1ccc(Cl)cc12 (stereo not drawn) as the entry.
Solution: 4.7

Exercise: Supply recorded pKa for CC(C(=O)O)c1ccc2oc(-c3ccc(Cl)cc3)nc2c1 (stereo not drawn) here.
Solution: 6.9
